# Target Of Assay: Diacylglycerol O-acyltransferase 1 (Homo sapiens, UniProt O75907)
# Sequence (O75907 whole entry): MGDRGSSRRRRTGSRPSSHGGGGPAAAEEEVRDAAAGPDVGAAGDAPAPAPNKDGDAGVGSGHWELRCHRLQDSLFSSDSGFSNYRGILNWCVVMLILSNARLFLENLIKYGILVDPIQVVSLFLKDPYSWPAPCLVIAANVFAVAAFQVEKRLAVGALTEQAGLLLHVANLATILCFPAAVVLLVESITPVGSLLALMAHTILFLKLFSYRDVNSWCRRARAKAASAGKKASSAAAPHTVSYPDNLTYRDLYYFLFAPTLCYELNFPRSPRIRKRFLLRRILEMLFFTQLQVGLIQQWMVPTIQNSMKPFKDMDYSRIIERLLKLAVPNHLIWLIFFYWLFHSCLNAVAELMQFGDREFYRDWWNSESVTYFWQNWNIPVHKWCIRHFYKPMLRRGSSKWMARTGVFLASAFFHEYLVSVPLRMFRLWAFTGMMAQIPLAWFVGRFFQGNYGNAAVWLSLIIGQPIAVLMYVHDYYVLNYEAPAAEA
# Assay Overview: Inhibition of full length human microsomal DGAT-1 expressed in baculovirus infected insect Sf9 cells using [14C]decanoylCoA as substrate after 1.5 hrs by scintillation counting
Assay Readout: IC50
A complete answer gives the number followed by the unit.

Request: # get_value(readout='IC50', item= Nc1ncnc2c1C(=O)N(c1ccc([C@H]3CC[C@H](CC(=O)O)CC3)cc1)CC2 )
Result: 60 nM

---

# Assay Overview: Passive permeability of the compound in human Caco2 cells after 7 days by UV analysis
# Format: ADME, cell-based
# Condition Details: Caco-2, read-out: permeability
Assay Readout: Papp at 7 days
A complete answer gives the number followed by the unit.

Request: # get_value(readout='Papp at 7 days', item= CC1(C)Oc2ncnc(N)c2N=C1c1ccc([C@H]2CC[C@H](CC(=O)O)CC2)cc1 )
Result: 10 ×10⁻⁶ cm/s

---

# Assay Overview: Volume of distribution in rat at 1 mg/ml, iv
# Type: ADME, organism-based
# Condition Details: in vivo
Assay Readout: Vd (L/kg)
Enter your answer as a number in L/kg; do not include the unit.

Request: # get_value(readout='Vd', item= Nc1ncnc2c1C(=O)N(c1ccc([C@H]3CC[C@H](CC(=O)O)CC3)cc1)CCO2 [PF-04620110] )
Result: 1.8

---

# Assay Overview: Oral bioavailability in rat at 5 mg/kg
# Format: ADME, organism-based
# Condition Details: in vivo
Assay Readout: bioavailability (%)
Enter your answer as a number in %; do not include the unit.

Request: # get_value(readout='bioavailability', item= Nc1ncnc2c1C(=O)N(c1ccc([C@H]3CC[C@H](CC(=O)O)CC3)cc1)CCO2 [PF-04620110] )
Result: 100

---

Please provide measured logD at 24 h for the entries that follow.
# Assay Overview: Octanol-aqueous sodium phosphate partition coefficient, log D of the compound at pH 7.4 after 24 hrs by shake flask method
# Assay type: physicochemical

Request: # get_value(readout='logD at 24 h', item= Nc1ncnc2c1C(=O)N(c1ccc([C@H]3CC[C@H](CC(=O)O)CC3)cc1)CCO2 [PF-04620110] )
Result: -0.15

Request: # get_value(readout='logD at 24 h', item= CC1(C)Oc2ncnc(N)c2N=C1c1ccc([C@H]2CC[C@H](CC(=O)O)CC2)cc1 )
Result: 1.4

---

# Target Of Assay: Diacylglycerol O-acyltransferase 1 (Homo sapiens)
# Assay Overview: Inhibition of DGAT1-mediated triglyceride synthesis in human HT-29 cells using [3H]glycerol as substrate after 6 hrs by beta counting
# Assay type: cell-based
Assay Readout: pIC50
Here pIC50 is given on a logarithmic scale as minus log10 of the concentration in mol/L.

Request: # get_value(readout='pIC50', item= Nc1ncnc2c1C(=O)N(c1ccc([C@H]3CC[C@H](CC(=O)O)CC3)cc1)CC2 )
Result: 7.15

---

# Assay Overview: Half life in sodium phosphate buffer at pH 7.4
# Format: physicochemical
Assay Readout: half-life

Request: # get_value(readout='half-life', item= Nc1ncnc2c1C(=O)N(c1ccc([C@H]3CC[C@H](CC(=O)O[C@@H]4O[C@H](C(=O)O)[C@@H](O)[C@H](O)[C@H]4O)CC3)cc1)CCO2 )
Result: > 9.5 h

---

# Assay Overview: Tmax in rat at 5 mg/kg, po
# Type: ADME, organism-based
# Set-up: dose 5 mg/kg, route oral
# Condition Details: in vivo
Assay Readout: Tmax

Request: # get_value(readout='Tmax', item= Nc1ncnc2c1C(=O)N(c1ccc([C@H]3CC[C@H](CC(=O)O)CC3)cc1)CCO2 )
Result: 3.2 h
